Target: T1, human LAG-3-6*His tag recombinant fusion protein (human, UniProt P18627 23-450, biotin-labelled in panning and in Example 9)
T1 construct: Bought protein; also called hLAG-3-6*his tag recombinant protein; human LAG-3-his tag recombinant fusion protein
T1 sequence: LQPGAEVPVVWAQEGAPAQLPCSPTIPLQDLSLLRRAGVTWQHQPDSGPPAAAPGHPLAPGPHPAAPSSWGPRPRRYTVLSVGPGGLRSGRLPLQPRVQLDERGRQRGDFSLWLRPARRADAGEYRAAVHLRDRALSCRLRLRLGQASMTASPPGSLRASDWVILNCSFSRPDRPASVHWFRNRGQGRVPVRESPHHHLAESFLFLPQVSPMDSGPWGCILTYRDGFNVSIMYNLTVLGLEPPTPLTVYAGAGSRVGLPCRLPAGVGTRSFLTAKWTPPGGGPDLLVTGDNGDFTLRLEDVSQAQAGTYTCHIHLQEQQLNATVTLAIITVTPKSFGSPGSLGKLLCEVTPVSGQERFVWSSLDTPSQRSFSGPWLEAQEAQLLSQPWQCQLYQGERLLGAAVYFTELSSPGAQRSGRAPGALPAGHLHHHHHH
Test: ELISA, human LAG-3-6*His coated at 1 µg/ml, IgG4 titrated, anti-hIgG HRP

BINDER	EC50
IgG4 monoclonal antibody 11446 (antibody, V domains shown, IgG4, kappa) VH: EVQLVESGGGVVQPGRSLRLSCAASGFTFSNYAMHWVRQAPGKGLEWVAVISYDGSDKYYADSVKGRFTISRDNSKNTLYLQMKSLRAEDTAVYYCARSIGFLESDAFDIWGQGTTVTVSS VL: DIVLTQSPSSLSASVGDRVTITCQASHGISNFLNWYQQKPGKAPKLLIYDASTLETGVPSRFSGSGSGTDFRFTISSLQPEDIATYYCQQFDNLPITFGQGTRLEIK	85.6 µg/mL
